# target.or.system: Brd4 bromodomain 1 (BRD4(1)) (Homo sapiens)
# assay: Inhibition of tetra-acetylated histone H4 binding to Brd4 bromodomain 1 (HTRF/FRET)
# protocol.conditions: tetra-acetylated histone H4 peptide, His-tagged bromodomain 200 nM, 2 h
pIC50: −log10 of the molar value.

- structure.as.smiles: "Cc1noc(C)c1-c1cc(-c2c(C)nn(C)c2C)c2[nH]c(=S)[nH]c2c1"
  pIC50: "≥ 6.52"
- structure.as.smiles: "Cc1noc(C)c1-c1cc(-c2c(C)nn(C)c2C)c2c(c1)[nH]c(=O)n2C"
  pIC50: "≥ 6.52"
- structure.as.smiles: "Cc1ccc(C#N)cc1-c1cc(-c2c(C)noc2C)cc2[nH]c(=S)[nH]c12"
  pIC50: "≥ 6.52"
- structure.as.smiles: "Cc1nc(C)c(-c2cc(-c3c(C)noc3C)cc3[nH]c(=O)n(C)c23)s1"
  pIC50: "5.52 to 6.52"
- structure.as.smiles: "Cc1noc(C)c1-c1cc(-c2c(Cl)cncc2Cl)c2c(c1)[nH]c(=O)n2C"
  pIC50: "≥ 6.52"
- structure.as.smiles: "Cc1ccc(Cl)cc1-c1cc(-c2c(C)noc2C)cc2[nH]c(=O)n(C)c12"
  pIC50: "≥ 6.52"
- structure.as.smiles: "Cc1noc(C)c1-c1cc(-c2c(C)noc2C)c2c(c1)n(C)c(=O)n2C"
  pIC50: "≥ 6.52"
- structure.as.smiles: "COc1ccc(C)cc1-c1cc(-c2c(C)noc2C)cc2[nH]c(=O)n(C)c12"
  pIC50: "≥ 6.52"
- structure.as.smiles: "Cc1noc(CO)c1-c1cc(-c2c(C)nn(C)c2C)c2c(c1)[nH]c(=O)n2C"
  pIC50: "≥ 6.52"
- structure.as.smiles: "Cc1noc(C)c1-c1cc(-c2cccc(C#N)c2C)c2c(c1)[nH]c(=O)n2C"
  pIC50: "≥ 6.52"

----------
# target.or.system: Brd4 bromodomain 1 (BRD4(1)) (Homo sapiens)
# assay: Inhibition of tetra-acetylated histone H4 binding to Brd4 bromodomain 1 (HTRF/FRET)
# protocol.conditions: tetra-acetylated histone H4 peptide, His-tagged bromodomain 200 nM, 2 h
pIC50: −log10 of the molar value.

- structure.as.smiles: "Cc1noc(C)c1-c1cc(-c2ccccc2Cl)c2c(c1)[nH]c(=O)n2C"
  pIC50: "5.52 to 6.52"
- structure.as.smiles: "Cc1noc(C)c1-c1cc(-c2c(C)nn(C)c2C)c2[nH]c(=O)[nH]c2c1"
  pIC50: "≥ 6.52"
- structure.as.smiles: "COc1nc(C)ccc1-c1cc(-c2c(C)noc2C)cc2[nH]c(=O)n(C)c12"
  pIC50: "5.52 to 6.52"
- structure.as.smiles: "Cc1noc(C)c1-c1cc(-c2c(C)noc2C)c2oc(=O)[nH]c2c1"
  pIC50: "≥ 6.52"
